Test: in vivo
Settings: mouse, 1 mg/kg, read-out: AUC0-inf
Description: Supplement 41598_2018_31801_MOESM1_ESM.docx, table 4: Table S4.
Endpoint: AUC(0-inf) (ng·h/mL)
Return type: number; implicit unit ng·h/mL.

So for CC(=O)NC1C(OC2C(C)OC(OC3C=CC=CC=CC=CCCC=CC=CC(C)C(O)C(C)C(C)OC(=O)CC(O)CC(O)CC(O)CCC(O)C(O)CC4(O)CC(O)C(C(=O)O)C(C3)O4)C(O)C2N)OC(CO)C(O)C1O (stereo not shown) , the logged AUC(0-inf) turned out to be 12700

====

Assay: in vivo
Settings: male, SD, rat, plasma, iv, 1 mg/kg
Endpoint: AUC(0-t)
Could you write the number and then its unit?

So for CC(=O)NC1C(OC2C(C)OC(OC3C=CC=CC=CC=CC=CC=CC=CC(C)C(O)C(C)C(C)OC(=O)CC(O)CC(O)CC(O)CCC(O)C(O)CC4(O)CC(O)C(C(=O)O)C(C3)O4)C(O)C2N)OC(CO)C(O)C1O (stereo not drawn) , the logged AUC(0-t) turned out to be 10300 ng·h/mL

So for CC(=O)NC1C(OC2C(C)OC(OC3C=CC=CC=CC=CCCC=CC=CC(C)C(O)C(C)C(C)OC(=O)CC(O)CC(O)CC(O)CCC(O)C(O)CC4(O)CC(O)C(C(=O)O)C(C3)O4)C(O)C2N)OC(CO)C(O)C1O (stereo not drawn) , the logged AUC(0-t) turned out to be 4390 ng·h/mL

So for C[C@@H]1[C@H](O)[C@@H](C)/C=C/C=C/CC/C=C/C=C/C=C/C=C/[C@H](O[C@@H]2O[C@H](C)[C@@H](O)[C@H](N)[C@@H]2O)C[C@@H]2O[C@](O)(C[C@@H](O)[C@H](O)CC[C@@H](O)C[C@@H](O)C[C@@H](O)CC(=O)O[C@H]1C)C[C@H](O)[C@H]2C(=O)O , the logged AUC(0-t) turned out to be 5120 ng·h/mL
